Listing of entries alongside the reported binding (fold over iso).
Target Desc: T1, human LILRB3 (human, UniProt O75022 24-631)
T1 construct: Over-expressed on CHO-s cells; also called hLILRB3
Measurement Protocol: flow cytometry, LILRB3 CHOs
Attribute Measured: binding (fold over iso)

Binder	Attribute Measured	Measured Result
J-19.h3 (antibody, human IgG4 S228P, kappa, V domains shown, Humanized, human IgG4 backbone) VH: QVTLKESGPSLVKPTQTLTLTCTFSGFSLNTYAMGVSWIRQPPGKALEWLASIWWNGNKYNNPSLKSRLTITKDTSKNQVVLKVTNMDPADTATYYCAHSRIIRFTDYVMDAWGQGTTVTVSS VL: DIVMTQSPSSLSASVGDTVTITCRASEDIYNDLAWYQQKPGKAPQLLLYNANSLHTGVPSRFSGSGSGTDYTLTISTLQPEDFATYYCQQYYDYPLTFGPGTKVHIKR	binding (fold over iso)	0.97
J-19.h1 (antibody, human IgG4 S228P, kappa, V domains shown, Humanized, human IgG4 backbone) VH: QITLKESGPTLVKPTQTLTLTCTFSGFSLNTYAMGVSWIRQPPGKALEWLASIWWNGNKYNNPSLKSRLTVTKDTSKNQVVLTMTNMDPVDTATYYCAHSRIIRFTDYVMDAWGQGTLVTVSS VL: DIQMTQSPSSLSTSVGDRVTITCRASEDIYNDLAWYQQKPGKAPKLLIYNANSLHTGVASRFSGSGSGTDFTFTISSLQPEDVATYFCQQYYDYPLTFGQGTKLEIKR	binding (fold over iso)	1
J-19.h2 (antibody, human IgG4 S228P, kappa, V domains shown, Humanized, human IgG4 backbone) VH: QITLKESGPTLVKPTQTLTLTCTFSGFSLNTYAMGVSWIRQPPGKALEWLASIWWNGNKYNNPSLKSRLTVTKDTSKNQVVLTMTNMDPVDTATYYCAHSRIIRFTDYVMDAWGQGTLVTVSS VL: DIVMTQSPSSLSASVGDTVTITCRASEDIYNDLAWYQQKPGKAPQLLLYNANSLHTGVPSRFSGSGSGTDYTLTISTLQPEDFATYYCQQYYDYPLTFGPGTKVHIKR	binding (fold over iso)	0.81
J-19.h4 (antibody, human IgG4 S228P, kappa, V domains shown, Humanized, human IgG4 backbone) VH: QVTLKESGPALVKPTHTLTLTCTFSGFSLNTYAMGVSWIRQPPGKALEWLASIWWNGNKYNNPSLKSRLTISKDTSKNQVVLTMTNMDPEDTATFYCAHSRIIRFTDYVMDAWGRGTTVTVSS VL: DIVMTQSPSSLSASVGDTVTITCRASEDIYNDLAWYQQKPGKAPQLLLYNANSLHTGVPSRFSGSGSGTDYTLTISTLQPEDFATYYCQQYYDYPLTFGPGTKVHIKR	binding (fold over iso)	1.24
